From: PubChem BioAssay (NCI)

tested on: SN12C renal; test: NCI-60 one-dose screen, 48 h (100 = growth as untreated, 0 = no growth, -100 = all killed); details: 10 µM unless noted
This is part of a sample that, as a whole, favours compounds with a hit. Of some 83,000 tested, about 20% had one in any assay.

[
  {
    "COMPOUND": "CCCc1nn2c(CCC(=O)c3nc4ccc([N+](=O)[O-])cc4[nH]3)nnc2s1",
    "growth [%]": 101
  },
  {
    "COMPOUND": "COc1cc(NC(C)CCCN2C(=O)c3ccccc3C2=O)c2nc(C)ccc2c1OC (stereo unspecified)",
    "growth [%]": 92.1
  },
  {
    "COMPOUND": "Oc1ccccc1/C=N/c1ccccn1",
    "growth [%]": 116
  },
  {
    "COMPOUND": "CCn1c(SC)nnc1-c1cc2c([nH]c3ccccc32)c(-c2cccc(O)c2)n1",
    "growth [%]": 39.5
  },
  {
    "COMPOUND": "NC(N)=N/N=C/c1ccc([N+](=O)[O-])cc1",
    "growth [%]": 96.7
  },
  {
    "COMPOUND": "COc1ccc(/C=C2\\CS(=O)(=O)C/C(=C\\c3ccc(OC)cc3)C2=O)cc1",
    "growth [%]": -52.1
  },
  {
    "COMPOUND": "COc1cc(-c2nc3sc(C)cn3c2/C=C2\\C(=O)Nc3ccccc32)c(Br)c(OC)c1OC",
    "growth [%]": 90.9
  },
  {
    "COMPOUND": "CNC(=O)NN",
    "growth [%]": 110
  },
  {
    "COMPOUND": "O=C1c2ccccc2OC=C(c2ccccc2)N1CCCCN1CCCCC1",
    "growth [%]": 20.4
  },
  {
    "COMPOUND": "CCN(CC)c1ccc(C2CC(c3cc(OC)c(OC)c(OC)c3)=NN2)cc1 (stereo unspecified)",
    "growth [%]": 47.2
  },
  {
    "COMPOUND": "COc1ccc(C(=O)NC(=O)Nc2ccc3c(c2)NC(=O)/C3=C\\c2[nH]c(C)c(CCC(=O)O)c2C)c(F)c1",
    "growth [%]": 39.7
  },
  {
    "COMPOUND": "CCOC(=O)c1noc2c1CCc1cn(Cc3cc(OC)cc(OC)c3)cc1-2",
    "growth [%]": 107
  },
  {
    "COMPOUND": "COc1ccc(OCC(O)CN2CCN(c3ccc(Cl)cc3)CC2)cc1 (stereo unspecified)",
    "growth [%]": 105
  },
  {
    "COMPOUND": "C=C1C(=O)O[C@H]2[C@H]1CC/C(C(=O)Nc1ccc(OC)c(C(N)=O)c1O)=C\\CC[C@@]1(C)O[C@@H]21",
    "growth [%]": 61.1
  },
  {
    "COMPOUND": "Nc1ccc(S(=O)(=O)Nc2cc(I)cc(I)c2)cc1",
    "growth [%]": 115
  },
  {
    "COMPOUND": "Cc1cccc[n+]1CCC[n+]1ccccc1C",
    "growth [%]": 101
  },
  {
    "COMPOUND": "Nc1ncnc2c1ccn2-c1cccc(NC(=O)c2cccc(C(F)(F)F)c2)c1",
    "growth [%]": 88.4
  },
  {
    "COMPOUND": "COc1ccc(C2=NN(C(=O)COc3ccc(Cl)cc3)C(O)(c3cc(F)c(Cl)cc3Cl)C2)cc1OC (stereo unspecified)",
    "growth [%]": 19.8
  },
  {
    "COMPOUND": "COc1ccccc1N1CCN(CCCOc2ccc(OCCCN3CCN(c4ccccc4OC)CC3)c(C(=O)c3cc(OC)c(OC)c(OC)c3)c2)CC1",
    "growth [%]": 110
  },
  {
    "COMPOUND": "COc1ccc(Cl)cc1NC(=O)c1cc2c([nH]1)-c1nc(NC(=O)C(C)(C)C)sc1CC2",
    "growth [%]": 38.6
  },
  {
    "COMPOUND": "CC(=O)Cc1cccnc1",
    "growth [%]": 98.9
  },
  {
    "COMPOUND": "COc1cc(-c2nc3ccccc3s2)ccc1OCc1nc2n(n1)S(=O)(=O)c1ccccc1N2C",
    "growth [%]": 107
  },
  {
    "COMPOUND": "O=S(=O)(CCN1CCOCC1)Nc1cc(-c2ccc3ncnc(Nc4ccc(F)c(Cl)c4)c3c2)cnc1Cl",
    "growth [%]": 18
  },
  {
    "COMPOUND": "O=C(Nc1ccc(-n2ccc3c(NC(=O)c4ccccc4)ncnc32)cc1)c1cccc(C(F)(F)F)c1",
    "growth [%]": 60.7
  },
  {
    "COMPOUND": "Cc1cn(C2CC(N=[N+]=[N-])C(COP(=O)(O)OP(=O)(O)OP(=O)(O)O)O2)c(=O)[nH]c1=O (stereo unspecified)",
    "growth [%]": 124
  },
  {
    "COMPOUND": "COc1ccc(-c2cnc(-c3ccc(F)cc3)[nH]2)cc1",
    "growth [%]": 99
  },
  {
    "COMPOUND": "CCOc1ccc(NC2=C(Cl)C(=O)c3ccccc3C2=O)cc1",
    "growth [%]": 61
  },
  {
    "COMPOUND": "CC(C)Cn1cnc2c3ccccc3nc(NCn3nc(-c4cc(Cl)cc(Cl)c4Cl)oc3=S)c21",
    "growth [%]": 98.5
  },
  {
    "COMPOUND": "Clc1ccc2c(NCCNc3nc(Cl)nc4ccccc34)ccnc2c1",
    "growth [%]": -76.6
  },
  {
    "COMPOUND": "Cc1ccc2nc(-c3ccc(-n4on4-c4ccc(/C=C/c5ccc(-n6on6-c6ccc(-c7nc8ccc(C)cc8s7)cc6)cc5S(=O)(=O)O)c(S(=O)(=O)O)c4)cc3)sc2c1",
    "growth [%]": 105
  },
  {
    "COMPOUND": "C[C@]12CC[C@@H]3c4ccc(O)c(N)c4CC[C@H]3[C@@H]1CC[C@@H]2O",
    "growth [%]": 105
  }
]
